Test: Freeze-thaw stability in spiked pooled human plasma
Type: physicochemical
Conditions: validation standard ULOV
Quantity measured: Freeze-Thaw Accuracy [%] (%)

{"columns": ["Compound", "Quantity measured", "Data value"],
 "data": [
  ["Cc1cc(Nc2ncc(Cl)c(Nc3ccccc3S(=O)(=O)C(C)C)n2)c(OC(C)C)cc1C1CCNCC1", "Freeze-Thaw Accuracy [%]", 97.5],
  ["O=C(c1ccc(F)c(F)c1Nc1ccc(I)cc1F)N1CC(O)([C@@H]2CCCCN2)C1", "Freeze-Thaw Accuracy [%]", 96.3],
  ["Cc1cn(-c2cc(NC(=O)c3ccc(C)c(Nc4nccc(-c5cccnc5)n4)c3)cc(C(F)(F)F)c2)cn1", "Freeze-Thaw Accuracy [%]", 96.0],
  ["CNCc1ccc(-c2[nH]c3cc(F)cc4c3c2CCNC4=O)cc1", "Freeze-Thaw Accuracy [%]", 95.5],
  ["COC(=O)N[C@@H](C)CNc1nccc(-c2cn(C(C)C)nc2-c2cc(Cl)cc(NS(C)(=O)=O)c2F)n1", "Freeze-Thaw Accuracy [%]", 98.7],
  ["COc1cc(Nc2c(C#N)cnc3cc(OCCCN4CCN(C)CC4)c(OC)cc23)c(Cl)cc1Cl", "Freeze-Thaw Accuracy [%]", 94.6],
  ["CCC1=C[C@@H]2CN(C1)Cc1c([nH]c3ccccc13)[C@@](C(=O)OC)(c1cc3c(cc1OC)N(C)[C@H]1[C@@](O)(C(=O)OC)[C@H](OC(C)=O)[C@]4(CC)C=CCN5CC[C@]31[C@@H]54)C2", "Freeze-Thaw Accuracy [%]", 96.7],
  ["C=CC(=O)N1CCC[C@@H](n2nc(-c3ccc(Oc4ccccc4)cc3)c3c(N)ncnc32)C1", "Freeze-Thaw Accuracy [%]", 95.6],
  ["Nc1cccc2c1C(=O)N(C1CCC(=O)NC1=O)C2=O (stereo not drawn) [Pomalidomide]", "Freeze-Thaw Accuracy [%]", 92.4],
  ["O=C1CCC(N2C(=O)c3ccccc3C2=O)C(=O)N1 (stereo not drawn) [Thalidomide]", "Freeze-Thaw Accuracy [%]", 72.8],
  ["Cc1ccc(C(=O)Nc2ccc(CN3CCN(C)CC3)c(C(F)(F)F)c2)cc1C#Cc1cnc2cccnn12", "Freeze-Thaw Accuracy [%]", 100.2],
  ["CS(=O)(=O)CCNCc1ccc(-c2ccc3ncnc(Nc4ccc(OCc5cccc(F)c5)c(Cl)c4)c3c2)o1", "Freeze-Thaw Accuracy [%]", 94.7],
  ["CNC(=O)c1ccc(N2C(=S)N(c3cnc(C#N)c(C(F)(F)F)c3)C(=O)C23CCC3)cc1F [Apalutamide]", "Freeze-Thaw Accuracy [%]", 95.7],
  ["CO[C@@H]1[C@H](N(C)C(=O)c2ccccc2)C[C@H]2O[C@]1(C)n1c3ccccc3c3c4c(c5c6ccccc6n2c5c31)C(=O)NC4", "Freeze-Thaw Accuracy [%]", 97.4],
  ["C#Cc1cccc(Nc2ncnc3cc(OCCOC)c(OCCOC)cc23)c1", "Freeze-Thaw Accuracy [%]", 102.0]
]}

Each recorded value in this set is attributed to paper PMC8699473.
